B1: Gamma-crystallin S, residues 96 to 176; numbered along this chain, P22914 (parent)
chain: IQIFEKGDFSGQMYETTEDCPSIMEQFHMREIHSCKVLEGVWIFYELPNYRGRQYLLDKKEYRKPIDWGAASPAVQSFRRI

variants of: B1; test: abundance fitness (aPCA) (normalised: wild type 0, dead -1); higher = more abundant; growth selection in yeast, the domain comes from the species named; details: Homo sapiens
Readout Label: abundance fitness

// below: answered variants
K6Q :: -0.056
I66W :: 0.011

Bench note: what abundance fitness did E15A show?
-0.011

Do the same for D19C please
-0.003

Repeat with E46W
-0.875

Do the same for P48L please
-0.32

Queued: C20I
0.023

These data points were gathered from the Human Domainome abundance scans (Beltran et al. 2025).
